molecular target: UniProt:P21889
Sequence (P21889 whole entry): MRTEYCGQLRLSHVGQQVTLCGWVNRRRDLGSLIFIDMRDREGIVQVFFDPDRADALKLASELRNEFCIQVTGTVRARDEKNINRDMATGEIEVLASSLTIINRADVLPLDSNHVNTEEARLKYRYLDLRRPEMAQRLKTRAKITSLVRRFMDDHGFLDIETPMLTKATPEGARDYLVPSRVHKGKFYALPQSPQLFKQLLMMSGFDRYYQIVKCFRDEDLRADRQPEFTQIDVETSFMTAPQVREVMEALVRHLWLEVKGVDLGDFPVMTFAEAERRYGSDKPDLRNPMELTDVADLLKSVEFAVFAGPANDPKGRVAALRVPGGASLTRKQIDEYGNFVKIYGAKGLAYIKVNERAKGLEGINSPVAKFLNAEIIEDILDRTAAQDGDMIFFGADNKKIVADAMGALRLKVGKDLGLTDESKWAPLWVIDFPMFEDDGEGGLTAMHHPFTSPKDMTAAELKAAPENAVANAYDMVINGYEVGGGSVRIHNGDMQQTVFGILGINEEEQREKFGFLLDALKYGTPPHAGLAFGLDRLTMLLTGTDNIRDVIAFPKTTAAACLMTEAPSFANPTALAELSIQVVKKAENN
PROPERTY: Kd (nM)
Please respond with the number in nM and leave the unit unwritten.

Specify the recorded Kd for Nc1ncnc2c1ncn2[C@@H]1O[C@H](COS(=O)(=O)NC(=O)[C@@H](N)CC(=O)O)[C@@H](O)[C@H]1O [Asp–AMS, 5′-O-[N-(L-aspartyl)sulfamoyl] adenosine] , system: UniProt:P21889.
2.95

Origin of the recorded values: paper PMC3575848
